method: Solubility to fluorine-based solvent
stated_conditions: Vertrel XF, 1% by mass, 25° C.
Reported Solubility to fluorine-based solvent values are given for each entry in this list.
parameter: Solubility to fluorine-based solvent

INSERT INTO measurements (compound, val) VALUES
  ('NCCOCC(F)(F)OC(F)(F)C(F)(F)OC(F)(F)C(F)(F)OC(F)(F)C(F)(F)C(F)(F)C(F)(F)F.O=S(=O)(NS(=O)(=O)C(F)(F)C(F)(F)C(F)(F)C(F)(F)F)C(F)(F)C(F)(F)C(F)(F)C(F)(F)F', 1),
  ('NCCOCC(F)(F)OC(F)(F)C(F)(F)OC(F)(F)C(F)(F)OC(F)(F)C(F)(F)C(F)(F)C(F)(F)F.O=S(=O)(O)C(F)(F)C(F)(F)C(F)(F)C(F)(F)F', 1),
  ('NCCOCC(F)(F)OC(F)(F)C(F)(F)OC(F)(F)C(F)(F)OC(F)(F)C(F)(F)C(F)(F)C(F)(F)F.O=S(=O)(O)CCCOCC(F)(F)OC(F)(F)C(F)(F)OC(F)(F)C(F)(F)OC(F)(F)C(F)(F)C(F)(F)C(F)(F)F [Ex. 1, PFTEG amine-PFTEG sulfonic acid salt]', 1),
  ('NCCC(F)(F)C(F)(F)C(F)(F)C(F)(F)C(F)(F)C(F)(F)C(F)(F)C(F)(F)F.O=S(=O)(O)C(F)(F)C(F)(F)C(F)(F)C(F)(F)F [compound 2, reference compound]', 2),
  ('NCCC(F)(F)C(F)(F)C(F)(F)C(F)(F)C(F)(F)C(F)(F)C(F)(F)C(F)(F)F.O=C(O)C(F)(F)OC(F)(F)C(F)(F)OC(F)(F)C(F)(F)OC(F)(F)C(F)(F)C(F)(F)C(F)(F)F', 1);

---

method: Solubility to fluorine-based solvent
stated_conditions: Novec 7100, 1% by mass, 25° C.
The compounds listed here are annotated with their Solubility to fluorine-based solvent.
parameter: Solubility to fluorine-based solvent

INSERT INTO assay_data (compound, val) VALUES
  ('NCCOCC(F)(F)OC(F)(F)C(F)(F)OC(F)(F)C(F)(F)OC(F)(F)C(F)(F)C(F)(F)C(F)(F)F.O=S(=O)(O)CCCOCC(F)(F)OC(F)(F)C(F)(F)OC(F)(F)C(F)(F)OC(F)(F)C(F)(F)C(F)(F)C(F)(F)F [Ex. 1, PFTEG amine-PFTEG sulfonic acid salt]', 1),
  ('NCCOCC(F)(F)OC(F)(F)C(F)(F)OC(F)(F)C(F)(F)OC(F)(F)C(F)(F)C(F)(F)C(F)(F)F.O=S(=O)(NS(=O)(=O)C(F)(F)C(F)(F)C(F)(F)C(F)(F)F)C(F)(F)C(F)(F)C(F)(F)C(F)(F)F [Ex. 5]', 1),
  ('NCCOCC(F)(F)OC(F)(F)C(F)(F)OC(F)(F)C(F)(F)OC(F)(F)C(F)(F)C(F)(F)C(F)(F)F.O=S(=O)(O)C(F)(F)C(F)(F)C(F)(F)C(F)(F)F [Ex. 3]', 1),
  ('NCCC(F)(F)C(F)(F)C(F)(F)C(F)(F)C(F)(F)C(F)(F)C(F)(F)C(F)(F)F.O=S(=O)(O)C(F)(F)C(F)(F)C(F)(F)C(F)(F)F [compound 2, reference compound]', 2),
  ('NCCC(F)(F)C(F)(F)C(F)(F)C(F)(F)C(F)(F)C(F)(F)C(F)(F)C(F)(F)F.O=C(O)C(F)(F)OC(F)(F)C(F)(F)OC(F)(F)C(F)(F)OC(F)(F)C(F)(F)C(F)(F)C(F)(F)F [Ex. 4]', 1);
